- System: biotinyl-Leu-oxazolone
- assay.protocol: self-aminoacylation, catalytic enhancement (BLO) (fold over background); higher = more active; k-Seq, kA / k0A0; sequences stand for … in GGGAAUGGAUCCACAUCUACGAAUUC…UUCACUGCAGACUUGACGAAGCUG
Fewer inactive variants are shown than the library holds.
Provide the reported self-aminoacylation of each item.
Numbers only.

Study these solved cases before continuing.
Query block: API: value(readout= self-aminoacylation, system= biotinyl-Leu-oxazolone, query= AUUGACCUAGGUGAUCGGGUG [Fam2.2 aminoacylation ribozyme variant] )
Result block: 5.78

Query block: Hi! What's the reported self-aminoacylation for AAUGACCUAGGUCAUCGGGUG [Fam2.2 aminoacylation ribozyme variant] on biotinyl-Leu-oxazolone?
Result block: 4.85

Query block: Give biotinyl-Leu-oxazolone self-aminoacylation for CUACUACAAACCAUCGGUCUG [Fam1A.1 aminoacylation ribozyme variant]
Result block: 0.702

Query block: Recorded self-aminoacylation for CUACUUCAAACAAUCCUUCUG [Fam1A.1 aminoacylation ribozyme variant] with biotinyl-Leu-oxazolone, please?
Result block: 0.469

# batch: return self-aminoacylation for each of the 2 sequences below
1. AUUACCCUGGUCAUCGAGAUA [Fam2.1 aminoacylation ribozyme variant]
2. GUUACCCUGGUCAUCGAGUGG [Fam2.1 aminoacylation ribozyme variant]

Result block:
1. 3.19
2. 58.4

====

- System: biotinyl-Leu-oxazolone
- assay.protocol: self-aminoacylation, catalytic enhancement (BLO) (fold over background); higher = more active; k-Seq, kA / k0A0; sequences stand for … in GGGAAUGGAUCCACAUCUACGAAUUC…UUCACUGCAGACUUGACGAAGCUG
Fewer inactive variants are shown than the library holds.
Ranges used to classify self-aminoacylation: I: < 1; II: ≥ 1 and < 4; III: ≥ 4

Worked examples follow.
Query block: State the class of the sequence shown: CCACAGUACAAGCAAUCGGUC [Fam1B.1 aminoacylation ribozyme variant]
Result block: II

Query block: Pick a category. Item: AUGACCCUGGUCAUCGCGUGA [Fam2.1 aminoacylation ribozyme variant]
Result block: III

Now examine the next entry.
Query block: Lab note: sort AUUCACCUAGGUAAUCGGGUU [Fam2.2 aminoacylation ribozyme variant] into the matching self-aminoacylation band.
Result block: II

====

Could you please report measured self-aminoacylation for the items listed next?
- Test system: biotinyl-Leu-oxazolone
- assay.protocol: self-aminoacylation, catalytic enhancement (BLO) (fold over background); higher = more active; k-Seq, kA / k0A0; sequences stand for … in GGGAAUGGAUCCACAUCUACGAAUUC…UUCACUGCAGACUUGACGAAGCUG
Fewer inactive variants are shown than the library holds.
Numbers only.

Some sequences with recorded self-aminoacylation:
Query block: # get_value(readout= self-aminoacylation, system= biotinyl-Leu-oxazolone) for CAACACUUCAGGCAAUCGGUC [Fam1B.1 aminoacylation ribozyme variant]
Result block: 1.34

Query block: API: value(readout=self-aminoacylation, system=biotinyl-Leu-oxazolone) for record UGUCACCUAGGUCAUCGGGUG [Fam2.2 aminoacylation ribozyme variant]
Result block: 3.64

Query block: Reported self-aminoacylation for biotinyl-Leu-oxazolone, given AAGUUUGCUAAAUGUCGCAAG [Fam3.1 aminoacylation ribozyme variant] ?
Result block: 1.1

Query block: Hello, I am looking for reported self-aminoacylation with biotinyl-Leu-oxazolone for CUACUUCAAACAUUCGGUUUG [Fam1A.1 aminoacylation ribozyme variant] . Could you help?
Result block: 0.962

Query block: What is its self-aminoacylation for biotinyl-Leu-oxazolone? Entry: CUGAUUCAAACAAUCGGUCUG [Fam1A.1 aminoacylation ribozyme variant]
Result block: 1.14

Then this sequence:
Query block: Lab request: please report self-aminoacylation under test system biotinyl-Leu-oxazolone for UCACACUUCAAGCCAUCGGUC [Fam1B.1 aminoacylation ribozyme variant]
Result block: 1.1

====

- Test system: biotinyl-Met-oxazolone
- assay.protocol: self-aminoacylation, catalytic enhancement (BMO) (fold over background); higher = more active; k-Seq, kA / k0A0; sequences stand for … in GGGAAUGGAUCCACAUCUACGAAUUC…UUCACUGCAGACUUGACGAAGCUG
This sample holds only a part of the variants without activity.
Outcome: True for self-aminoacylation of at least 1; False for anything lower.

Query block: Is self-aminoacylation for ACUCACCUAGGUCAUGGGGUG [Fam2.2 aminoacylation ribozyme variant] at or above 1?
Result block: True

Query block: Could you tell me if the measured self-aminoacylation of CCACACCUCAACCAAUCGGUC [Fam1B.1 aminoacylation ribozyme variant] reaches 1 or more?
Result block: True

Query block: Does self-aminoacylation meet or surpass 1 for AUUACCCUGGUCAACGCGUGA [Fam2.1 aminoacylation ribozyme variant] ?
Result block: True

Next:
Query block: Evaluate CUUACCCUGGUCUUCGAGUGA [Fam2.1 aminoacylation ribozyme variant] : self-aminoacylation at minimum 1?
Result block: True

Query block: Quick check, self-aminoacylation >= 1? AUUACCCUGGUCAACGAGUGC [Fam2.1 aminoacylation ribozyme variant]
Result block: False

====

- Tested on: biotinyl-Val-oxazolone
- assay.protocol: self-aminoacylation, catalytic enhancement (BVO) (fold over background); higher = more active; k-Seq, kA / k0A0; sequences stand for … in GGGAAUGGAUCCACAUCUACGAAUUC…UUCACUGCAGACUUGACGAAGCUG
Fewer inactive variants are shown than the library holds.
t means recorded self-aminoacylation is 2 or above; f means it is below 2.

Query block: Test whether the sequence AUAACCCUGGCCAUCGAGUGA [Fam2.1 aminoacylation ribozyme variant] records self-aminoacylation of 2 or higher.
Result block: t

Query block: Hello, I need to know if AUUCACCUCGGUCAUCGGGGG [Fam2.2 aminoacylation ribozyme variant] has measured self-aminoacylation not below 2. Thanks!
Result block: t

Continuing:
Query block: Hi, just wondering whether AUUCACCUAGGUCAGCGGGCG [Fam2.2 aminoacylation ribozyme variant] shows self-aminoacylation of 2 or higher.
Result block: t

Query block: Decide: self-aminoacylation of AAGUUUACUAAUAGUCGCAAA [Fam3.1 aminoacylation ribozyme variant] >= 2?
Result block: f

Query block: // inclusive: self-aminoacylation at least 2? input: AUUACCCUGGUCAUCUAGUCA [Fam2.1 aminoacylation ribozyme variant]
Result block: f

Query block: Tell me whether self-aminoacylation is at least 2 here: AUUCACCCAGGUCAUCGGGCG [Fam2.2 aminoacylation ribozyme variant]
Result block: t

Query block: Item UUACUUCAAACAAUCGGUAUG [Fam1A.1 aminoacylation ribozyme variant] with self-aminoacylation of 2 or above?
Result block: f

Query block: Does the sequence AUUACCCUGGUCUUCGUGUGA [Fam2.1 aminoacylation ribozyme variant] have recorded self-aminoacylation that is 2 or more?
Result block: f

Query block: Reported self-aminoacylation at or above 2? AUGUUUGCUAAUAGUCGCAAC [Fam3.1 aminoacylation ribozyme variant]
Result block: f

Query block: Exam item: decide whether the reported self-aminoacylation for AUUUCCCUGGACAUCGAGUGA [Fam2.1 aminoacylation ribozyme variant] is at least 2.
Result block: t

Query block: Evaluate AAGUUUCCUAAUAGUCGCAAG [Fam3.1 aminoacylation ribozyme variant] : self-aminoacylation at minimum 2?
Result block: f

Query block: API: above_or_equal(metric=self-aminoacylation, cutoff=2) for item CAGUUUGCUAAUAGUCGCACG [Fam3.1 aminoacylation ribozyme variant]
Result block: f

Query block: # bool: self-aminoacylation of AGUACCCUGGUCAUCGAGGGA [Fam2.1 aminoacylation ribozyme variant] >= 2
Result block: f

Query block: Determine whether measured self-aminoacylation meets or exceeds 2 for ACUACCCUGGUCAUCGACUGA [Fam2.1 aminoacylation ribozyme variant]
Result block: f

Query block: Dear colleague, could you confirm whether CAACUUCAAACAAUCGGUUUG [Fam1A.1 aminoacylation ribozyme variant] has self-aminoacylation at or above 2?
Result block: f

====

- Test system: biotinyl-Leu-oxazolone
- assay.protocol: self-aminoacylation, catalytic enhancement (BLO) (fold over background); higher = more active; k-Seq, kA / k0A0; sequences stand for … in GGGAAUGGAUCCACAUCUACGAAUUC…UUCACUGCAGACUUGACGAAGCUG
This sample holds only a part of the variants without activity.
Provide the reported self-aminoacylation of each item.
Give bare numbers.

Recorded results for 4 sequences are shown here.
Query block: Find the recorded self-aminoacylation belonging to AUUACCGUGGACAUCGAGUGA [Fam2.1 aminoacylation ribozyme variant] and report it.
Result block: 3.92

Query block: # self-aminoacylation lookup, item AUUCACCUAGUUCAUCGCGUG [Fam2.2 aminoacylation ribozyme variant]
Result block: 6.91

Query block: self-aminoacylation lookup needed for UUUCACCUACGUCAUCGGGUG [Fam2.2 aminoacylation ribozyme variant] , thanks.
Result block: 5.75

Query block: Would you kindly share the measured self-aminoacylation for AUUACCCUGGUCAUAGAGCGA [Fam2.1 aminoacylation ribozyme variant] ?
Result block: 1.04

# next sequence below
Query block: Would you mind telling me what self-aminoacylation value was observed for CCAGAUUUCAAGCAAUCGGUC [Fam1B.1 aminoacylation ribozyme variant] ?
Result block: 1.38

The measurements presented in this section are drawn from the supplement of paper PMC9233669.
